As shown below, each of these compounds has a reported LD50 value.
EXPERIMENT DESCRIPTION: Toxicity against i.p. dosed Swiss albino Mus musculus (mouse) by Sperman-Karber method
Type: organism-based
RUN CONDITIONS: in vivo, ip
The figure you give is taken to be in mg/kg; do not add the unit.

- SMILES ENTRY: "Cc1ccc2nc(SCC(=O)NN3C(=O)c4c(Cl)c(Cl)c(Cl)c(Cl)c4C3=O)n(-c3ccccc3)c(=O)c2c1"
  MEASUREMENT UNITS: "mg/kg"
  MEASURED: 1290

Here's the next entry for you.
**Query** Look at this compound and give its reported LD50. O=C1c2ccccc2C(=O)N1n1c(-c2cccs2)nc2ccc(I)cc2c1=O
**Result** 1380
